// reported MIC for each item listed
System: Klebsiella pneumoniae
experiment.notes: Antibacterial activity against Klebsiella pneumoniae ATCC 700603 after 18 hrs by broth dilution method
Type: functional
protocol.conditions: ATCC 700603, 18 h

[
  {
    "compound": "CCn1cc(C(=O)O)c(=O)c2cc(F)c(N3CCNCC3)cc21",
    "inequality.sign": "=",
    "MIC [µg/mL]": 0.938
  },
  {
    "compound": "O=CN1CCN(c2cc3c(cc2F)c(=O)ccn3C2CC2)CC1",
    "inequality.sign": ">",
    "MIC [µg/mL]": 80
  },
  {
    "compound": "O=c1ccn(C2CC2)c2cc(N3CCNCC3)c(F)cc12",
    "inequality.sign": ">",
    "MIC [µg/mL]": 80
  },
  {
    "compound": "CCn1ccc(=O)c2cc(F)c(N3CCNCC3)cc21",
    "inequality.sign": ">",
    "MIC [µg/mL]": 80
  },
  {
    "compound": "CCn1ccc(=O)c2cc(F)c(N3CCN(C=O)CC3)cc21",
    "inequality.sign": ">",
    "MIC [µg/mL]": 80
  },
  {
    "compound": "O=C(O)c1cn(C2CC2)c2cc(N3CCNCC3)c(F)cc2c1=O",
    "inequality.sign": "=",
    "MIC [µg/mL]": 0.313
  },
  {
    "compound": "CC1CN(c2c(F)cc3c(=O)ccn(C4CC4)c3c2F)CCN1 (stereo unspecified)",
    "inequality.sign": ">",
    "MIC [µg/mL]": 80
  },
  {
    "compound": "CCN1CCN(c2cc3c(cc2F)c(=O)c(C(=O)O)cn3C2CC2)CC1",
    "inequality.sign": "=",
    "MIC [µg/mL]": 0.625
  },
  {
    "compound": "CCN1CCN(c2cc3c(cc2F)c(=O)ccn3C2CC2)CC1",
    "inequality.sign": ">",
    "MIC [µg/mL]": 80
  },
  {
    "compound": "CC1CN(c2c(F)cc3c(=O)c(C(=O)O)cn(C4CC4)c3c2F)CCN1 (stereo unspecified)",
    "inequality.sign": "=",
    "MIC [µg/mL]": 0.313
  },
  {
    "compound": "O=CN1CCN(c2cc3c(cc2F)c(=O)c(C(=O)O)cn3C2CC2)CC1",
    "inequality.sign": "=",
    "MIC [µg/mL]": 5
  }
]

Recorded values, source ChEMBL document CHEMBL1833882.
